Source: patent US7223398

Target: IgE on basophils of ragweed allergic patients
Assay: cell-based or functional assay
OBSERVATION_TYPE: HR40 (concentration required to induce 40% histamine release), patient one (µg/mL)
Just the number in µg/mL, nothing appended.

What does the data say about its HR40 (concentration required to induce 40% histamine release), patient one? Entry: AIC-H (covalent conjugate of Amb a 1 and ISS-containing polynucleotide SEQ ID NO:1, high extent of conjugation) (protein, ragweed, UniProt P27759 26-396, looked up, average of >5.5 oligonucleotides (5' thio ISS oligonucleotide, SEQ ID NO:1) per Amb a 1 molecule, linked through the heterobifunctional linker sSMCC; Amb a 1 blocked with N-ethyl maleimide before activation) AEDLQEILPVNETRRLTTSGAYNIIDGCWRGKADWAENRKALADCAQGFGKGTVGGKDGDIYTVTSELDDDVANPKEGTLRFGAAQNRPLWIIFERDMVIRLDKEMVVNSDKTIDGRGAKVEIINAGFTLNGVKNVIIHNINMHDVKVNPGGLIKSNDGPAAPRAGSDGDAISISGSSQIWIDHCSLSKSVDGLVDAKLGTTRLTVSNSLFTQHQFVLLFGAGDENIEDRGMLATVAFNTFTDNVDQRMPRCRHGFFQVVNNNYDKWGSYAIGGSASPTILSQGNRFCAPDERSKKNVLGRHGEAAAESMKWNWRTNKDVLENGAIFVASGVDPVLTPEQSAGMIPAEPGESALSLTSSAGVLSCQPGAPC
0.5

Then this binder: AIC-M (covalent conjugate of Amb a 1 and ISS-containing polynucleotide SEQ ID NO:1, medium extent of conjugation) (protein, ragweed, UniProt P27759 26-396, looked up, average of 3.5 to 4.5 oligonucleotides (5' thio ISS oligonucleotide, SEQ ID NO:1) per Amb a 1 molecule, linked through the heterobifunctional linker sSMCC; Amb a 1 blocked with N-ethyl maleimide before activation) AEDLQEILPVNETRRLTTSGAYNIIDGCWRGKADWAENRKALADCAQGFGKGTVGGKDGDIYTVTSELDDDVANPKEGTLRFGAAQNRPLWIIFERDMVIRLDKEMVVNSDKTIDGRGAKVEIINAGFTLNGVKNVIIHNINMHDVKVNPGGLIKSNDGPAAPRAGSDGDAISISGSSQIWIDHCSLSKSVDGLVDAKLGTTRLTVSNSLFTQHQFVLLFGAGDENIEDRGMLATVAFNTFTDNVDQRMPRCRHGFFQVVNNNYDKWGSYAIGGSASPTILSQGNRFCAPDERSKKNVLGRHGEAAAESMKWNWRTNKDVLENGAIFVASGVDPVLTPEQSAGMIPAEPGESALSLTSSAGVLSCQPGAPC
0.03

Then this binder: AIC-L (covalent conjugate of Amb a 1 and ISS-containing polynucleotide SEQ ID NO:1, low extent of conjugation) (protein, ragweed, UniProt P27759 26-396, looked up, average of 2-3 oligonucleotides (5' thio ISS oligonucleotide, SEQ ID NO:1) per Amb a 1 molecule, linked through the heterobifunctional linker sSMCC; Amb a 1 blocked with N-ethyl maleimide before activation) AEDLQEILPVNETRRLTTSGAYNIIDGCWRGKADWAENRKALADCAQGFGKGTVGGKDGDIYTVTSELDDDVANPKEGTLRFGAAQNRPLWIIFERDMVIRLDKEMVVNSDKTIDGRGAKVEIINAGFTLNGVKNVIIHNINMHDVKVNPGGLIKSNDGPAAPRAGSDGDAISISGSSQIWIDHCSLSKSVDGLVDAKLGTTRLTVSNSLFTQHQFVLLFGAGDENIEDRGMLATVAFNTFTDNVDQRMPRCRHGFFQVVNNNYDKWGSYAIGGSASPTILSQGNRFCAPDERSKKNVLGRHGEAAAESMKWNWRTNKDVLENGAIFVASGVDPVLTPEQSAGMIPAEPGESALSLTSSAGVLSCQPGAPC
0.02
